Source of measurements: ChEMBL document CHEMBL6134835

- experimentDescription: Cmax in C57BL/6 mouse at 50 mg/kg, po measured for 24 hrs by LC-MS/MS analysis
- Format: ADME, organism-based
- testConditions: in vivo

>  <smilesRepresentation>
CNC(=O)c1ccc(NCC#Cc2cc3c(N[C@@H]4CCN(C)C[C@@H]4F)cccc3n2CC(F)(F)F)c(OC)c1

>  <Cmax>
16600 ng/mL

$$$$
